Origin of values: paper PMC12416549

Molecular target: T1, TNFR1 (Homo sapiens, UniProt P19438)
T1 chain: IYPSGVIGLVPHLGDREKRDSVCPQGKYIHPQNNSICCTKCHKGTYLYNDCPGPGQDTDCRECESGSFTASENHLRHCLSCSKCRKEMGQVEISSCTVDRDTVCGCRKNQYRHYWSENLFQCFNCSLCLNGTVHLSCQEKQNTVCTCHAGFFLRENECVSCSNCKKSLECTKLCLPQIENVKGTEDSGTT
Experiment: yeast display SC50
recorded endpoint: apparent Kd (screen) (pM)

Past entries and their recorded results:
E29A (designed binder) MTLQELLREEALRRAEAEAFRYALELLAAKFPEQKEYLLDLAEEIESQIRSLSGVDVEDVRKFLDKEWAWVKELLAEHPAELAEVEAARAARLAELRAEVEAKVAA: 718
A88K (designed binder) MTLQELLREEALRRAEAEAFRYALELLAEKFPEQKEYLLDLAEEIESQIRSLSGVDVEDVRKFLDKEWAWVKELLAEHPAELAEVEAKRAARLAELRAEVEAKVAA: 539
L27P (designed binder) MTLQELLREEALRRAEAEAFRYALELPAEKFPEQKEYLLDLAEEIESQIRSLSGVDVEDVRKFLDKEWAWVKELLAEHPAELAEVEAARAARLAELRAEVEAKVAA: 7780

(1) M1N (designed binder) NTLQELLREEALRRAEAEAFRYALELLAEKFPEQKEYLLDLAEEIESQIRSLSGVDVEDVRKFLDKEWAWVKELLAEHPAELAEVEAARAARLAELRAEVEAKVAA
(2) L39N (designed binder) MTLQELLREEALRRAEAEAFRYALELLAEKFPEQKEYLNDLAEEIESQIRSLSGVDVEDVRKFLDKEWAWVKELLAEHPAELAEVEAARAARLAELRAEVEAKVAA
Query: Please let me know which one, 1 or 2 , has a lower measured apparent Kd (screen) value. // output: label of the selected item
Reply: 1
(1: 490 pM, 2: 2480 pM)

(1) A83T (designed binder) MTLQELLREEALRRAEAEAFRYALELLAEKFPEQKEYLLDLAEEIESQIRSLSGVDVEDVRKFLDKEWAWVKELLAEHPAELTEVEAARAARLAELRAEVEAKVAA
(2) F20D (designed binder) MTLQELLREEALRRAEAEADRYALELLAEKFPEQKEYLLDLAEEIESQIRSLSGVDVEDVRKFLDKEWAWVKELLAEHPAELAEVEAARAARLAELRAEVEAKVAA
Query: Parameter check: reported apparent Kd (screen) is higher for which label, 1 or 2 ? Response format: the label of the selected entry.
Reply: 2

(1) A19S (designed binder) MTLQELLREEALRRAEAESFRYALELLAEKFPEQKEYLLDLAEEIESQIRSLSGVDVEDVRKFLDKEWAWVKELLAEHPAELAEVEAARAARLAELRAEVEAKVAA
(2) F20P (designed binder) MTLQELLREEALRRAEAEAPRYALELLAEKFPEQKEYLLDLAEEIESQIRSLSGVDVEDVRKFLDKEWAWVKELLAEHPAELAEVEAARAARLAELRAEVEAKVAA
Query: Lower value for measured apparent Kd (screen)? Options: 1 , 2 State your choice using its label.
Reply: 1
(1: 653 pM, 2: 7070 pM)
